system: BDF1 mice, B16 melanoma ip, median survival T/C; test: NCI In Vivo Anticancer Drug Screen. Data for tumor model B16 Melanoma (intraperitoneal) in B6D2F1 (BDF1) mice; settings: endpoint: median survival time; dose: 50.0 mg/kg/injection; schedule: Q01DX009 (ip); vehicle: Klucel (hydroxypropylcellulose) (HPC); higher = longer survival
Toxic doses and inconclusive results are not listed.
Measure: T/C

COc1ccc(C(N)=O)cc1N=NN(C)C :: 117 % of control
CSc1ncnc2nc[nH]c12 :: 104 % of control
COc1ccc(CCN2C(=O)CSC2=S)cc1OC :: 88 % of control
Cc1cc(C)cc(OCC2CNC(=O)O2)c1 (centres undefined) :: 108 % of control
NC(N)=NCCCOc1ccccc1 :: 100 % of control

Okay, next one:
Lookup: # lookup: T/C of CNC(=O)Nc1cccc(C(F)(F)F)c1
Found: 100 % of control
